measurementName: melting point

A selection of reference data follows.
COc1ccc(-n2nnc(-c3ccc(C(F)(F)F)cc3F)c2N)cc1
165 to 166 °C
COc1c(I)cc(-c2c3ccccc3cc3sc4ccccc4c23)cc1I
228 to 230 °C
COC(=O)CCC(=O)c1ccc2c(c1)CNC(=O)N2C
165 to 175 °C
Cc1cc(-c2cc(C(=O)O)c(=O)n(Cc3ccccc3Cl)n2)ccc1F
185 to 186 °C
Cc1ccccc1-c1cc(=O)c(C)c(-c2ccccc2)n1-c1ccccc1
188 to 191 °C
O=C(O)COc1cccc2c1OCc1sc(SC(c3ccccc3)c3ccccc3)nc1-2
129 to 131 °C
COC(=O)C1=CC=CC(C(=O)OC)(N(c2ccccc2)c2ccc(-c3ccc(N(c4ccccc4)C4(C(=O)OC)C=CC=C(C(=O)OC)C4)cc3)cc2)C1 (configuration not stated)
136 to 141 °C
Cn1c(=O)c2c(nc(/C=C/c3ccc4c(c3)OCO4)n2C)n(C)c1=O
> 300 °C

Task item: Any idea what its melting point is? The compound is Clc1ccc(CN2CCN(CCN3CCCCC3)CC2c2ccccc2)cc1 (configuration not stated)
Reply: 85 to 87 °C

Task item: Return reported melting point; argument: `NNc1cc2c(nn1)CCN(C(=O)CCCc1ccccc1)C2`
Reply: 203 to 205 °C

Task item: Form field: reported melting point of Cc1cccc(N(C)C(=O)c2cc(=O)n(C)c3ccc(C(O)(c4ccc(Cl)cc4)c4cncn4C)cc23)c1 (configuration not stated)
Reply: 185 °C

Task item: Which value of melting point has been reported for `CSc1nn2c(N(C)C)cc(C)nc2c1S(=O)(=O)c1ccc(C(C)C)cc1` in the records?
Reply: 222 to 224 °C

Task item: Request the reported melting point associated with `COC(=O)c1nccnc1Oc1ccccc1C(F)(F)F`
Reply: 83 to 85 °C
